Cited source for all entries: PubChem BioAssay AID2060890

# Test system: LG0703-F948-PDC complex spheroid viability;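 further: spheroids exposed to agents for 7 days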
# procedure.summary: Anticancer human tumor LG0703-F948-PDC patient-derived lung adenocarcinoma cell line growth inhibition [RAS]
# conditions: second compound 0.003 µM; first compound 0.1 µM; active compounds read low
# label = condition met if viability, T/C < 40% else condition not met

// below: answered compounds
Answer whether the compound CC(C)NCC(C(=O)N1CCN(c2ncnc3c2C(C)CC3O)CC1)c1ccc(Cl)cc1 (stereo not drawn) + CCn1c(-c2cccnc2C(C)OC)c2c3cc(ccc31)N1CCOC(CC(NC(=O)C(C(C)C)N(C)C(=O)C3(F)CCN(C(=O)C#CC(C)(C)N(C)C)CC3)C(=O)N3CCCC(N3)C(=O)OCC(C)(C)C2)C1 has viability, T/C strictly less than 40% condition not met

Entry to check: CC1(O)CCCC1n1c(=O)c(C(F)F)cc2cnc(NC3CCN(S(C)(=O)=O)CC3)nc21 (stereo not drawn) + CCn1c(-c2cc(N3CCN(C)CC3)cnc2C(C)OC)c2c3cc(ccc31)-c1csc(n1)CC(NC(=O)C1CC1C)C(=O)N1CCCC(N1)C(=O)OCC(C)(C)C2 condition not met

Entry to check: C[C@@H](NC(=O)c1ncnc(N)c1Cl)c1ncc(C(=O)Nc2cc(C(F)(F)F)c(Cl)cn2)s1 + CCn1c(-c2cccnc2C(C)OC)c2c3cc(ccc31)N1CCOC(CC(NC(=O)C(C(C)C)N(C)C(=O)C3(F)CCN(C(=O)C#CC(C)(C)N(C)C)CC3)C(=O)N3CCCC(N3)C(=O)OCC(C)(C)C2)C1 condition not met

Further cases:
Answer whether the compound CC(C)NCC(C(=O)N1CCN(c2ncnc3c2C(C)CC3O)CC1)c1ccc(Cl)cc1 (stereo not drawn) + CCn1c(-c2cc(N3CCN(C)CC3)cnc2C(C)OC)c2c3cc(ccc31)-c1csc(n1)CC(NC(=O)C1CC1C)C(=O)N1CCCC(N1)C(=O)OCC(C)(C)C2 has viability, T/C strictly less than 40% condition met

Entry to check: CC(C)n1nc(-c2ccc3oc(N)nc3c2)c2c(N)ncnc21 + CCn1c(-c2cc(N3CCN(C)CC3)cnc2C(C)OC)c2c3cc(ccc31)-c1csc(n1)CC(NC(=O)C1CC1C)C(=O)N1CCCC(N1)C(=O)OCC(C)(C)C2 condition met

Entry to check: O=C(c1ccc(F)c(F)c1Nc1ccc(I)cc1F)N1CC(O)([C@@H]2CCCCN2)C1 + CCn1c(-c2cc(N3CCN(C)CC3)cnc2C(C)OC)c2c3cc(ccc31)-c1csc(n1)CC(NC(=O)C1CC1C)C(=O)N1CCCC(N1)C(=O)OCC(C)(C)C2 condition met

Entry to check: C=CC(=O)Nc1cc(Nc2nccc(-c3cn(C)c4ccccc34)n2)c(OC)cc1N(C)CCN(C)C + CCn1c(-c2cc(N3CCN(C)CC3)cnc2C(C)OC)c2c3cc(ccc31)-c1csc(n1)CC(NC(=O)C1CC1C)C(=O)N1CCCC(N1)C(=O)OCC(C)(C)C2 condition met

Entry to check: CC(=O)OC12COC1CC(O)C1(C)C(=O)C(O)C3=C(C)C(OC(=O)C(O)C(NC(=O)OC(C)(C)C)c4ccccc4)CC(O)(C(OC(=O)c4ccccc4)C21)C3(C)C (stereo not drawn) + CCn1c(-c2cccnc2C(C)OC)c2c3cc(ccc31)N1CCOC(CC(NC(=O)C(C(C)C)N(C)C(=O)C3(F)CCN(C(=O)C#CC(C)(C)N(C)C)CC3)C(=O)N3CCCC(N3)C(=O)OCC(C)(C)C2)C1 condition met
